read-out: ABC Transporter (ABCC3), ABCC3 (gene 8714); assay: LTEA_HepaRG_ABCC3: Life Technologies and Expression Analysis (LTEA) Assay for ABC Transporter (ABCC3) using HepaRG (AID 2283462); details: mRNA level, 48 h; actives raise or lower the signal
Active and inactive are the calls of the source. Rule for the calls: active = hit-call score of the fitted dose curve at least 0.9, where 1 is the maximum; inactive = score below 0.9.
Assign a class; possible classes are label 1 (active), label 0 (inactive)

Hi, sorry to bother you, what did the test record for CCOP(=S)(OCC)SCSC(C)(C)C ?
label 0

Dear colleague, could you share the recorded outcome for c1ccc(-c2ccccc2)cc1 when you have a moment?
label 0

Assay outcome for O=C(NC(=O)c1c(F)cccc1F)Nc1cc(Cl)c(OC(F)(F)C(F)F)c(Cl)c1 : what was it?
label 0

Recorded test outcome, item C[C@]12CCC(=O)C=C1CC[C@@H]1[C@@H]2CC[C@@]2(C)[C@H]1CC[C@]2(C)O
label 0

Any idea what this test logged for CCCCCCCCCC[N+](C)(C)CCCCCCCCCC ?
label 1

Which outcome was assigned to Cc1ccccc1CO[C@@H]1C[C@@]2(C(C)C)CC[C@]1(C)O2 in this test?
label 0

In this assay, the call recorded for Cc1ccccc1O was what?
label 0

Tell me the recorded outcome of this test for CCNc1nc(NC(C)C)nc(SC)n1 .
label 0

Recorded test call requested for ClC1=C(Cl)[C@]2(Cl)[C@@H]3[C@@H]4C[C@@H]([C@H]5O[C@@H]45)[C@@H]3[C@@]1(Cl)C2(Cl)Cl
label 0

* * *

assay: CCTE_Shafer_MEA_dev_correlation_coefficient_mean: CCTE's Neural Network Formation Assay for Mean Correlation Coefficient, Shafer Lab (AID 2284093)
Active and inactive are the calls of the source. Rule for the calls: active = hit-call score of the fitted dose curve at least 0.9, where 1 is the maximum; inactive = score below 0.9.
Response enum: class 1 = active, class 0 = inactive

Field: outcome | Entry: Clc1ccc(C(c2ccccc2Cl)C(Cl)(Cl)Cl)cc1 (configuration not stated)
class 1

Outcome? ClC(Cl)=C(c1ccc(Cl)cc1)c1ccc(Cl)cc1
class 1

Call for entry C=CC(N)=O :
class 0

Can you look up the reported call for ClC1=C(Cl)[C@]2(Cl)[C@@H]3[C@H]4C[C@H]([C@@H]5O[C@H]45)[C@@H]3[C@@]1(Cl)C2(Cl)Cl for me?
class 0

Look up the recorded call for O=S(=O)(O)C(F)(F)C(F)(F)C(F)(F)C(F)(F)C(F)(F)C(F)(F)F in this test.
class 0

// param item: ClC1=C(Cl)[C@]2(Cl)[C@@H]3[C@@H]4C[C@@H]([C@H]5O[C@@H]45)[C@@H]3[C@@]1(Cl)C2(Cl)Cl ; yields the recorded call
class 1

Tell me the recorded outcome of this test for Oc1ccc(C(c2ccc(O)cc2)(C(F)(F)F)C(F)(F)F)cc1 .
class 0

* * *

read-out: CYP2C9 (gene 1559); assay: LTEA_HepaRG_CYP2C9: Life Technologies and Expression Analysis (LTEA) Assay for CYP2C9 using HepaRG (AID 2283484); conditions: mRNA level, 48 h; actives raise or lower the signal
Calls of active or inactive are those of the source. How the source made its calls: active means hit-call score of the fitted dose curve at least 0.9, where 1 is the maximum; inactive means score below 0.9.
I would appreciate it if you answered using one of these outcomes: active, inactive

Please indicate how the test categorized ClC(Cl)=C(c1ccc(Cl)cc1)c1ccc(Cl)cc1 .
inactive

Kindly provide the recorded test outcome for the following molecule: O=S(=O)(O)C(F)(F)C(F)(F)C(F)(F)C(F)(F)C(F)(F)C(F)(F)F
active

Query: recorded result category for C=CC(=O)NCNC(=O)C=C in this test
inactive

What call does the record list for Nn1cnnc1 ?
inactive

For C[C@]12CCC(=O)C=C1CC[C@@H]1[C@@H]2CC[C@]2(C)C(=O)CC[C@@H]12 , which call appears in the assay record?
inactive

Would you mind telling me which call this test gave O=C(NC(=O)c1c(F)cccc1F)Nc1cc(Cl)c(OC(F)(F)C(F)F)c(Cl)c1 ?
inactive

Could you check what this test reported for CCC(C)c1cc([N+](=O)[O-])cc([N+](=O)[O-])c1O (stereo not drawn) ?
active

Recorded test outcome, item CC(C)(O)C(=O)Nc1ccc([N+](=O)[O-])c(C(F)(F)F)c1
inactive

// return assay outcome for CC1=C2C[C@H]3[C@@H](CC=C4C[C@@H](O)CC[C@@]43C)[C@@H]2CC[C@]12O[C@@H]1C[C@H](C)CN[C@H]1[C@H]2C
inactive

In this assay, the call recorded for O=NN(c1ccccc1)c1ccccc1 was what?
active

Just curious, what result did O=C(O)C(F)(F)C(F)(F)C(F)(F)C(F)(F)C(F)(F)F get here?
active

What outcome does the record of this test show for CCCCCCCCCC[N+](C)(C)CCCCCCCCCC ?
active

State the result this test recorded for O=C(O)C(F)(F)C(F)(F)C(F)(F)C(F)(F)C(F)(F)C(F)(F)C(F)(F)C(F)(F)C(F)(F)F .
active

Hi, do you know how c1ccc(-c2ccccc2)cc1 came out in this test?
inactive

How was CCOCCOC(C)=O classified in this test?
inactive

Dear all, I need the recorded test outcome for N#Cc1ccc(N(CC(N)=O)CC(F)(F)F)cc1C(F)(F)F , thank you.
inactive

What classification did CCSC(=O)N(CC)C1CCCCC1 end up with in this test?
inactive

Returns: the outcome recorded for Nc1ccc(-c2ccc(N)cc2)cc1 in this assay.
inactive

State the result this test recorded for CN(C)CCO .
inactive

Hi team, can someone confirm the assay call for CC(c1ccc(O)cc1)(c1ccc(O)cc1)c1ccc(O)cc1 ?
active

Hi team, can someone confirm the assay call for Oc1ccc(C(c2ccc(O)cc2)(C(F)(F)F)C(F)(F)F)cc1 ?
inactive

Recorded test outcome, item c1cc2ccc3cccc4ccc(c1)c2c34
inactive

Hi, do you know how Cc1ccccc1O came out in this test?
inactive

Which outcome was entered for the molecule COc1ccc(O)c(C(C)(C)C)c1 in this test?
inactive

Outcome logged for C[C@]12CCC(=O)C=C1CC[C@@H]1[C@@H]2CC[C@@]2(C)[C@H]1CC[C@]2(C)O in this assay:
inactive

What classification did Cc1cccc(C)c1N end up with in this test?
inactive

Test call, this molecule: CCCN(CCC)N=O
inactive

Called result for O=C(O)C(F)(F)C(F)(F)C(F)(F)C(F)(F)C(F)(F)C(F)(F)C(F)(F)C(F)(F)F
active

These entries and their values trace back to PubChem BioAssay (EPA / NIEHS).
